Here the recorded inhibition at 1 µM is given for each entry.
- study system: 17β-hydroxysteroid dehydrogenase type 3 (17β-HSD type 3) (Homo sapiens)
- Construct: expressed in transfected cells; host or cells: MCF-7
- Sequence (P37058 whole entry): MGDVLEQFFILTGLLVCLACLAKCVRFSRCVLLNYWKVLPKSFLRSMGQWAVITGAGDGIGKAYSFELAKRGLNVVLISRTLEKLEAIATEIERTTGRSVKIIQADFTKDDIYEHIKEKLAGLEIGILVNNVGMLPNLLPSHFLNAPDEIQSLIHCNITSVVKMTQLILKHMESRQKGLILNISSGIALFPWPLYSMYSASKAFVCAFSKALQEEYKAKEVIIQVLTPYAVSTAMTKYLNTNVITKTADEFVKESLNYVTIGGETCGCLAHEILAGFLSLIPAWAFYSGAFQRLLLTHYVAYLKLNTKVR
- protocol summary: Inhibition of 17β-HSD type 3 in MCF-7 cells stably expressing the isoenzyme (tritium labeled androstenedione conversion, HPLC)
- Type: cell-based
- study conditions: MCF7; 1 μM test compound; MCF-7 cells expressing 17β-HSD type 3; 2 nM tritium labeled androstenedione; read-out: % Inhibition HSD3 1 μM
Report as a plain number; the unit % is understood.

# value of inhibition at 1 µM, 17β-hydroxysteroid dehydrogenase type 3 (17β-HSD type 3) (Homo sapiens), item CCSc1c(C=O)ccc2c1sc1nc(-c3ccc(OC)cc3)n(Cc3ccccc3)c(=O)c12 = 66.1

# value of inhibition at 1 µM, 17β-hydroxysteroid dehydrogenase type 3 (17β-HSD type 3) (Homo sapiens), item COc1cc(-c2nc3sc4c(c3c(=O)n2Cc2ccco2)CCCC4=O)cc(OC)c1OC = 12.4

# value of inhibition at 1 µM, 17β-hydroxysteroid dehydrogenase type 3 (17β-HSD type 3) (Homo sapiens), item O=C1CCCc2c1sc1nc(-c3cccs3)n(Cc3ccccc3)c(=O)c21 = 18

# value of inhibition at 1 µM, 17β-hydroxysteroid dehydrogenase type 3 (17β-HSD type 3) (Homo sapiens), item CCCCn1c(-c2cc(OC)c(OC)c(O)c2Br)nc2sc3c(O)c(Br)c(C)cc3c2c1=O = 7.4

# value of inhibition at 1 µM, 17β-hydroxysteroid dehydrogenase type 3 (17β-HSD type 3) (Homo sapiens), item COc1ccc(-c2nc3sc4c(c3c(=O)n2Cc2ccccc2)CCC(C=O)=C4Cl)cc1 = 22.7

# value of inhibition at 1 µM, 17β-hydroxysteroid dehydrogenase type 3 (17β-HSD type 3) (Homo sapiens), item COc1ccc(-c2nc3sc4c(c3c(=O)n2Cc2ccccc2)CCC(Br)(Br)C4=O)cc1 = 10.3
